- Tested on: MIP-1β
- assay_text: LPS-stimulated PBMC cytokine production, multiplex cytokine analysis: MIP-1β
- Type: cell-based, human
- assay_conditions: Homo sapiens; PBMC 2×10^6 cells/ml, compound 1 hour, then 1 ng/ml LPS 18 hours
IC50 by entry:

Worked cases, answers included:
# compound, IC50
measured = [
    ("Nc1cccc2c1C(=O)N(C1CCC(=O)NC1=O)C2=O (stereo not drawn) [Pomalidomide]", "> 10 µM"),
    ("Cc1nc2cccc(N)c2c(=O)n1C1CCC(=O)NC1=O (stereo not drawn) [Avadomide]", "> 10 µM"),
    ("O=C1CCC(N2Cc3c(OCc4ccc(CN5CCOCC5)cc4)cccc3C2=O)C(=O)N1 (single isomer, unassigned) [Compound A]", "> 10 µM"),
    ("Nc1cccc2c1CN(C1CCC(=O)NC1=O)C2=O (stereo not drawn) [Lenalidomide]", "> 10 µM"),
    ("O=C1CCC(N2C(=O)c3ccccc3C2=O)C(=O)N1 (stereo not drawn) [Thalidomide]", "> 10 µM"),
]

Shifting focus to the compound that follows.
IN: Look at this compound and give its reported IC50. O=C1CC[C@H](N2Cc3c(OCc4ccc(CN5CCOCC5)cc4)cccc3C2=O)C(=O)N1 [Iberdomide]
OUT: > 10 µM

Reference source for all entries: patent US20230172923A1
